Tested on: Fusarium oxysporum
Method summary: Antifungal activity against Fusarium oxysporum at 20 ug after 48 hrs by cup diffusion method
Type: functional
Condition summary: read-out: IZ
Response field class: string, computed from recorded zone of inhibition at 20 µg/disc by ranges bucket A: < 20 mm; bucket B: ≥ 20 mm and < 30 mm; bucket C: ≥ 30 mm

# example entries with known answers
(Q) Which category does the recorded zone of inhibition at 20 µg/disc put CCOC(=O)C1CCC(c2ccc3c(c2)CCC3)=NO1 (configuration not stated) in?
(A) bucket C

(Q) Which category does the recorded zone of inhibition at 20 µg/disc put Cc1ccc(C2=NOC(C#N)CC2)cc1 (configuration not stated) in?
(A) bucket A

(Q) Which category does the recorded zone of inhibition at 20 µg/disc put COc1ccc(C2=NOC(C#N)CC2)cc1 (configuration not stated) in?
(A) bucket A

(Q) Which category does the recorded zone of inhibition at 20 µg/disc put Cc1ccc(C2=NOC(CCl)CC2)cc1C (configuration not stated) in?
(A) bucket B

(Q) Which category does the recorded zone of inhibition at 20 µg/disc put Cc1ccc(C2=NOC(Cc3ccc4c(c3)OCO4)CC2)cc1 (configuration not stated) in?
(A) bucket B

***
(Q) Which category does the recorded zone of inhibition at 20 µg/disc put c1cc2c(cc1CC1CCC(c3ccc4c(c3)CCC4)=NO1)OCO2 (configuration not stated) in?
(A) bucket B

(Q) Which category does the recorded zone of inhibition at 20 µg/disc put ClCC1CCC(c2ccc3c(c2)CCC3)=NO1 (configuration not stated) in?
(A) bucket C

(Q) Which category does the recorded zone of inhibition at 20 µg/disc put N#CC1CCC(c2ccc3c(c2)CCC3)=NO1 (configuration not stated) in?
(A) bucket A

(Q) Which category does the recorded zone of inhibition at 20 µg/disc put Cc1ccc(C2=NOC(Cc3ccc4c(c3)OCO4)CC2)cc1C (configuration not stated) in?
(A) bucket B

(Q) Which category does the recorded zone of inhibition at 20 µg/disc put CCOC(=O)C1CCC(c2ccc(OC)c(OC)c2)=NO1 (configuration not stated) in?
(A) bucket A

(Q) Which category does the recorded zone of inhibition at 20 µg/disc put Cc1ccc(C2=NOC(C#N)CC2)cc1C (configuration not stated) in?
(A) bucket B

###

Test system: Klebsiella pneumoniae
Method summary: Antibacterial activity against Klebsiella pneumoniae […] at 20 ug after 24 hrs by cup diffusion method
Type: functional
Condition summary: read-out: IZ
Recorded metric: zone of inhibition at 20 µg/disc
# answer = value followed by unit

Worked examples, 5 compounds total:
Result for ClCC1CCC(c2ccc3c(c2)CCC3)=NO1 (configuration not stated) , tested on Klebsiella pneumoniae, zone of inhibition at 20 µg/disc: 25.8 mm

Result for COc1ccc(C2=NOC(CCl)CC2)cc1 (configuration not stated) , tested on Klebsiella pneumoniae, zone of inhibition at 20 µg/disc: 17.7 mm

Result for c1cc2c(cc1CC1CCC(c3ccc4c(c3)CCC4)=NO1)OCO2 (configuration not stated) , tested on Klebsiella pneumoniae, zone of inhibition at 20 µg/disc: 16.5 mm

Result for N#CC1CCC(c2ccc3c(c2)CCC3)=NO1 (configuration not stated) , tested on Klebsiella pneumoniae, zone of inhibition at 20 µg/disc: 23.8 mm

Result for CCOC(=O)C1CCC(c2ccc3c(c2)CCC3)=NO1 (configuration not stated) , tested on Klebsiella pneumoniae, zone of inhibition at 20 µg/disc: 13.5 mm

***
Result for Cc1ccc(C2=NOC(C#N)CC2)cc1C (configuration not stated) , tested on Klebsiella pneumoniae, zone of inhibition at 20 µg/disc: 19.8 mm

Result for Cc1ccc(C2=NOC(Cc3ccc4c(c3)OCO4)CC2)cc1C (configuration not stated) , tested on Klebsiella pneumoniae, zone of inhibition at 20 µg/disc: 15.5 mm

###

System: Staphylococcus aureus
Method summary: Antibacterial activity against Staphylococcus aureus MTCC 737 at 20 ug after 24 hrs by cup diffusion method
Format: functional
Condition summary: MTCC 737, 24 h, read-out: IZ
Recorded metric: zone of inhibition at 20 µg/disc (mm)
Reply with just the number (in mm).

Worked examples, 4 compounds total:
Record summary for Cc1ccc(C2=NOC(C#N)CC2)cc1 (stereo not given) : reported zone of inhibition at 20 µg/disc = 23.5

Record summary for Cc1ccc(C2=NOC(Cc3ccc4c(c3)OCO4)CC2)cc1 (stereo not given) : reported zone of inhibition at 20 µg/disc = 12.8

Record summary for N#CC1CCC(c2ccc3c(c2)CCC3)=NO1 (stereo not given) : reported zone of inhibition at 20 µg/disc = 17.7

Record summary for Cc1ccc(C2=NOC(CCl)CC2)cc1 (stereo not given) : reported zone of inhibition at 20 µg/disc = 16.7

***
Record summary for CCOC(=O)C1CCC(c2ccc(OC)cc2)=NO1 (stereo not given) : reported zone of inhibition at 20 µg/disc = 16.7

Record summary for CCOC(=O)C1CCC(c2ccc(C)c(C)c2)=NO1 (stereo not given) : reported zone of inhibition at 20 µg/disc = 17.8

Record summary for COc1ccc(C2=NOC(C#N)CC2)cc1 (stereo not given) : reported zone of inhibition at 20 µg/disc = 9.5

Record summary for Cc1ccc(C2=NOC(CCl)CC2)cc1C (stereo not given) : reported zone of inhibition at 20 µg/disc = 20.7

Record summary for COc1ccc(C2=NOC(Cc3ccc4c(c3)OCO4)CC2)cc1OC (stereo not given) : reported zone of inhibition at 20 µg/disc = 16.5

Record summary for c1cc2c(cc1CC1CCC(c3ccc4c(c3)CCC4)=NO1)OCO2 (stereo not given) : reported zone of inhibition at 20 µg/disc = 15.7

Record summary for Cc1ccc(C2=NOC(CO)CC2)cc1C (stereo not given) : reported zone of inhibition at 20 µg/disc = 14.8

Record summary for CCOC(=O)C1CCC(c2ccc3c(c2)CCC3)=NO1 (stereo not given) : reported zone of inhibition at 20 µg/disc = 18.7

Record summary for Cc1ccc(C2=NOC(CO)CC2)cc1 (stereo not given) : reported zone of inhibition at 20 µg/disc = 7.5

Record summary for CC1(C)S[C@@H]2[C@H](NC(=O)Cc3ccccc3)C(=O)N2[C@H]1C(=O)O : reported zone of inhibition at 20 µg/disc = 9.38

Record summary for Cc1ccc(C2=NOC(C#N)CC2)cc1C (stereo not given) : reported zone of inhibition at 20 µg/disc = 21.5

Record summary for COc1ccc(C2=NOC(CCl)CC2)cc1OC (stereo not given) : reported zone of inhibition at 20 µg/disc = 17.8

Record summary for ClCC1CCC(c2ccc3c(c2)CCC3)=NO1 (stereo not given) : reported zone of inhibition at 20 µg/disc = 13.5

Record summary for COc1ccc(C2=NOC(CCl)CC2)cc1 (stereo not given) : reported zone of inhibition at 20 µg/disc = 14.7

Record summary for COc1ccc(C2=NOC(Cc3ccc4c(c3)OCO4)CC2)cc1 (stereo not given) : reported zone of inhibition at 20 µg/disc = 21.7

Record summary for OCC1CCC(c2ccc3c(c2)CCC3)=NO1 (stereo not given) : reported zone of inhibition at 20 µg/disc = 10.7

###

Quick list: zone of inhibition at 20 µg/disc per entry.
System: Klebsiella pneumoniae
Method summary: Antibacterial activity against Klebsiella pneumoniae […] at 20 ug after 24 hrs by cup diffusion method
Assay type: functional
Condition summary: read-out: IZ
Reply with just the number (in mm).

Worked examples, 5 molecules total:
Record summary for Cc1ccc(C2=NOC(CCl)CC2)cc1C (stereo not drawn) : reported zone of inhibition at 20 µg/disc = 15.8

Record summary for COc1ccc(C2=NOC(C#N)CC2)cc1OC (stereo not drawn) : reported zone of inhibition at 20 µg/disc = 7.75

Record summary for Cc1ccc(C2=NOC(CO)CC2)cc1 (stereo not drawn) : reported zone of inhibition at 20 µg/disc = 19.8

Record summary for Cc1ccc(C2=NOC(Cc3ccc4c(c3)OCO4)CC2)cc1 (stereo not drawn) : reported zone of inhibition at 20 µg/disc = 19.7

Record summary for Cc1ccc(C2=NOC(C#N)CC2)cc1 (stereo not drawn) : reported zone of inhibition at 20 µg/disc = 16.7

***
Record summary for COc1ccc(C2=NOC(Cc3ccc4c(c3)OCO4)CC2)cc1OC (stereo not drawn) : reported zone of inhibition at 20 µg/disc = 17.5

Record summary for CCOC(=O)C1CCC(c2ccc(C)c(C)c2)=NO1 (stereo not drawn) : reported zone of inhibition at 20 µg/disc = 16.7

Record summary for OCC1CCC(c2ccc3c(c2)CCC3)=NO1 (stereo not drawn) : reported zone of inhibition at 20 µg/disc = 17.7

Record summary for Cc1ccc(C2=NOC(CCl)CC2)cc1 (stereo not drawn) : reported zone of inhibition at 20 µg/disc = 16.5

Record summary for COc1ccc(C2=NOC(C#N)CC2)cc1 (stereo not drawn) : reported zone of inhibition at 20 µg/disc = 6.66

Record summary for CCOC(=O)C1CCC(c2ccc(OC)c(OC)c2)=NO1 (stereo not drawn) : reported zone of inhibition at 20 µg/disc = 20.7

Record summary for COc1ccc(C2=NOC(Cc3ccc4c(c3)OCO4)CC2)cc1 (stereo not drawn) : reported zone of inhibition at 20 µg/disc = 19.7

Record summary for CCOC(=O)C1CCC(c2ccc(OC)cc2)=NO1 (stereo not drawn) : reported zone of inhibition at 20 µg/disc = 14.8
